Test: Solubility assay by visual observation and manual dilution
Assay type: physicochemical
Conditions: organic solvent or mixture, thermodynamic from solid; room temperature; solvent Tetrahydrofuran (THF)
PARAMETER: solubility

Input COC(=O)CCC/C=C(\C)[C@H]1CC[C@H]2[C@@H]3CC=C4C[C@@H](OC5C=C[C@H](OC(C)=O)[C@@H](COC(C)=O)O5)CC[C@]4(C)[C@H]3CC[C@]12C (stereo partly shown) , output reported solubility.
> 76 mg/mL

---

Assay: Solubility assay by visual observation and manual dilution
Format: physicochemical
Conditions: organic solvent or mixture, thermodynamic from solid; room temperature; solvent Toluene
PARAMETER: solubility

Input COC(=O)CCC/C=C(\C)[C@H]1CC[C@H]2[C@@H]3CC=C4C[C@@H](OC5C=C[C@H](OC(C)=O)[C@@H](COC(C)=O)O5)CC[C@]4(C)[C@H]3CC[C@]12C (stereo partly shown) , output reported solubility.
> 83 mg/mL
